Molecular target: Glutamate [NMDA] receptor
Assay: Tested in vitro for the affinity against NMDA receptor by examining its ability to inhibit [3H]-CGS-19,755 binding
Assay type: protein-complex assay
Test Readout: IC50

Cl.NC(CCCCCCc1nnn[nH]1)C(=O)O (stereo not drawn); > 10 µM
NC(CCCCCc1nnn[nH]1)C(=O)O (stereo not drawn); > 10 µM
O=C(O)C1CN(CCCCc2nnn[nH]2)CCN1 (stereo not drawn); > 10 µM
